A collection of compounds and their measured % Inhibition
# System: P. falciparum stage V gametocytes
# Design: BacTiter-Glo ATP luminescence viability of purified stage V gametocytes in 384-well plates, per cent inhibition versus DMSO
# Measurement Conditions: 48 h, 5 µM; inhibitor
In all, about 13,000 compounds went through this assay and about 3,200 (25%) showed an effect of 50% or more. The list shows a part of the results.
Provide the reading as a plain figure in %.

Below, 2 compounds whose answers are already recorded.
| Compound | Endpoint Unit | % Inhibition |
| --- | --- | --- |
| O=C(c1cc(C(=O)Nc2ccccc2)c(=O)n(-c2ccccc2)c1)c1cc(Cl)ccc1O [TCMDC-124511] | % | 30.05 |
| OC(CNc1ccnc(Nc2ccc(Cl)cc2)n1)c1cccc(C(F)(F)F)c1 (stereo not drawn) [TCMDC-136587] | % | 30.58 |

Now let's try a different one.
I would be grateful if you could share the reported % Inhibition for O=C(CNC1CCCCC1)Nc1cccc(C(=O)Nc2cccc(C(F)(F)F)c2)c1 [TCMDC-123711] .
29.34

----------
# Test system: P. falciparum stage V gametocytes
# Set-up: BacTiter-Glo ATP luminescence viability of purified stage V gametocytes in 384-well plates, per cent inhibition versus DMSO
# Measurement Conditions: 48 h, 5 µM; inhibitor
Screen size: about 13,000 compounds; about 3,200 (25%) showed an effect of 50% or more. This is one part of the list.
A collection of compounds and their measured % Inhibition
Provide the reading as a plain figure in %.

I would be grateful if you could share the reported % Inhibition for CN(C)C(=O)c1ccc(CN(Cc2ccc3c(c2)OCCO3)Cc2ccc3c(c2)OCO3)cc1 [TCMDC-136612] .
-1.47

I would be grateful if you could share the reported % Inhibition for Nc1ccnc(N2CCC(CCOc3ccnc4cc(Cl)ccc34)CC2)c1 [TCMDC-141365] .
-42.39

I would be grateful if you could share the reported % Inhibition for COc1cc(Cc2cnc(N)nc2N)cc(OC)c1OCCCCCN1C(=O)c2ccccc2C1=O [TCMDC-138036] .
16.13

I would be grateful if you could share the reported % Inhibition for COc1ccc(NC(=O)/C=C/c2ccccc2Cl)cc1OCCN1CCC(N2CCCC2)CC1 [TCMDC-140919] .
-16.17

I would be grateful if you could share the reported % Inhibition for CN(C)C(=O)c1ccc(CN(Cc2ccc(OC(C)(C)C)cc2)Cc2ccc3c(c2)OCCO3)cc1 [TCMDC-136615] .
62.57

I would be grateful if you could share the reported % Inhibition for O=C(CC(=O)C(F)(F)F)c1ccc2c(c1)OCO2 [TCMDC-125824] .
-11.59

----------
# System: P. falciparum stage V gametocytes
# Parameters: BacTiter-Glo ATP luminescence viability of purified stage V gametocytes in 384-well plates, per cent inhibition versus DMSO
# Measurement Conditions: 48 h, 5 µM; inhibitor
The campaign covered roughly 13,000 compounds. About 3,200 (25%) showed an effect of 50% or more. Some of the results follow.
Our labelling divides records by % Inhibition into ranges: bucket A: < 20%; bucket B: ≥ 20% and < 60%; bucket C: ≥ 60%

Consider the following illustrative entries.
| Molecule | Class |
| --- | --- |
| CCCc1cc(=O)[nH]c(-n2nc(C)cc2NC(=O)CC(c2ccccc2)c2ccccc2)n1 | bucket B |
| Cc1cccc(Nc2nc3nonc3nc2Nc2cccc(Cl)c2Cl)c1C | bucket A |
| Cc1nc(N=C(N)N)nc2ccc(C(C)(C)C)cc12 | bucket A |
| Cc1ccc(Cn2cnc3cc(C(=O)Nc4ccc(-c5ccc(CN(C)C)cc5)cc4)ccc3c2=O)o1 | bucket C |
| O=C(C=Cc1ccc(Br)cc1)NC1CCC(CN2CCC(c3c[nH]c4ccccc34)CC2)CC1 (stereo not shown) | bucket B |
| Cc1nc(N=C(N)N)nc2cc3c(cc12)CCC3 | bucket C |

Lab log: "COc1cccc(OC)c1-c1ccccc1NC(=O)N1CCCc2cc(C)ccc21" — assign % Inhibition category
bucket A

Lab log: "NC(N)=NC(=O)Nc1ccc(Cl)c(C(F)(F)F)c1" — assign % Inhibition category
bucket A

Lab log: O=C(/C=C/c1ccc(Cl)c(Cl)c1)NC1CCC(CN2CCC(c3c[nH]c4ccncc34)CC2)CC1 (stereo not shown) — assign % Inhibition category
bucket C

Lab log: Cc1cccc2nc(-c3cccc(-c4cccc(NC(=O)NC5CC5c5ccccc5)c4)c3)[nH]c12 (stereo not shown) — assign % Inhibition category
bucket A

Lab log: "Cc1cc(I)ccc1Nc1nc2nonc2nc1Nc1ccc(I)cc1C" — assign % Inhibition category
bucket B

Lab log: COc1ccc(OCC(O)CN(Cc2ccccc2OC)C(=O)Nc2ccc(Br)cc2)cc1 (stereo not shown) — assign % Inhibition category
bucket B

These entries and their values trace back to paper PMC4552634.
